Would you kindly list pIC50 for each of these molecules?
Target: UniProtKB P43116
Test: cAMP antagonism assay (HTRF cAMP detection, in presence of PGE2)
Conditions: cAMP antagonism test
Numbers only, as −log10 of the molar value.

molecule: O=C(O)Cn1c2ccccc2c2ccc(OCCCOc3ccccc3)cc21
pIC50: 5.17
//
molecule: O=C(O)Cn1c2ccccc2c2ccc(OCCCCCOc3ccccc3)cc21
pIC50: 5.17

Please state, for each entry, its recorded pIC50.
1. O=C(O)CCn1c2ccccc2c2ccc(OCCCCOc3ccc4c(c3)CCC(=O)N4)cc21
2. O=C(O)Cn1c2ccccc2c2ccc(OCCCCOc3ccc(-n4cccc4)cc3)cc21

Return:
1. 5.49
2. 5.92

For each entry beneath this line, provide reported pIC50.
1. O=C(O)CC1c2ccccc2-c2ccc(OCCCCOc3cccc(O)c3)cc21 (racemic)
2. CC(=O)c1cccc(OCCCCOc2ccc3c4ccccc4n(CC(=O)O)c3c2)c1

Return:
1: 5.19; 2: 5.20

###

Give measured IC50 for each item. Keep answers brief.
Biological target: human prostaglandin E2 (subtype EP2) receptor (Homo sapiens)
Sequence (P43116 whole entry): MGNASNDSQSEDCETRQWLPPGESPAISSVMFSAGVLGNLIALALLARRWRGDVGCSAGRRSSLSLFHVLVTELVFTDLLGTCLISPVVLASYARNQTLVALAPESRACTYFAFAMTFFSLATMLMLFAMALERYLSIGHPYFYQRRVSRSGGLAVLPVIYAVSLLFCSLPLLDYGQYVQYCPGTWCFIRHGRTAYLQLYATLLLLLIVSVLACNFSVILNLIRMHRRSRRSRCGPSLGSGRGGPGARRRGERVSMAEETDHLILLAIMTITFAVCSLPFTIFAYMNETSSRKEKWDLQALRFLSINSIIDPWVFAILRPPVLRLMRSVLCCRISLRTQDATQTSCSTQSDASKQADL
Assay: cAMP antagonism assay (HTRF cAMP detection, in presence of PGE2)
Details: cAMP antagonism test

The following molecules each have a reported value; give each one's IC50.
1. CC(C)Oc1ccc2c(=O)c3cc(C(=O)O)ccc3oc2c1 [AH6809, reference compound]
2. CCOC(=O)Cn1c2ccccc2c2ccc(OCCCCOc3cccc(C(=O)OC)c3)cc21
3. CC(=O)Nc1cccc(OCCCCOc2ccc3c(c2)C(CC(=O)O)c2ccccc2-3)c1 (racemic)

Return:
1. > 19 µM
2. > 19 µM
3. > 19 µM
